Molecular target: CDK10/Cyclin L2 (Homo sapiens)
Sequence (Q15131 whole entry): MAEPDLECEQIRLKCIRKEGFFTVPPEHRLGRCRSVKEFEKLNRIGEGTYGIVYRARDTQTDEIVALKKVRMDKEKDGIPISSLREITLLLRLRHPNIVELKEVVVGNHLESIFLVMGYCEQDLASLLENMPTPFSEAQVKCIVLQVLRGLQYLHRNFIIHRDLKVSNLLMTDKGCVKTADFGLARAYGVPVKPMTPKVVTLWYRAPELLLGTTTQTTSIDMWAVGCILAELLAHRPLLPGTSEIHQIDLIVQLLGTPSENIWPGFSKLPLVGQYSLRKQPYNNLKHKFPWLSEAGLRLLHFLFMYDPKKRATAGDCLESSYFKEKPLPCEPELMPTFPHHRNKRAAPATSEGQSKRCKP
Test: NanoBRET live-cell target engagement, CDK10-NanoLuc/Cyclin L2 in HEK-293
Conditions: read-out: Inhibition at 10µM (%) Replicate 2, CDK10/L2; 10µM
Recorded inhibition at 10 µM values for a group of molecules are listed next.
# output: bare number, implied unit %

Known results for molecules:
{"molecule": "CCN1CCN(Cc2ccc(NC(=O)Nc3ccc(Oc4cc(NC)ncn4)cc3)cc2C(F)(F)F)CC1", "recordedEndpoint": "inhibition at 10 µM", "assayResult": 93.8}
{"molecule": "COc1cc(F)ccc1-c1cc(Nc2cc(CS(C)(=N)=O)ccn2)ncc1F (stereo not drawn)", "recordedEndpoint": "inhibition at 10 µM", "assayResult": 51.4}
{"molecule": "CC(C)c1cnn2c(NCc3ccccc3)cc(NCCCCCCN)nc12", "recordedEndpoint": "inhibition at 10 µM", "assayResult": 36.7}
{"molecule": "CCCCOc1c(C(=O)c2c(F)cc(C)cc2F)c[nH]c2nncc1-2", "recordedEndpoint": "inhibition at 10 µM", "assayResult": 17}

In: Name the recorded inhibition at 10 µM for COc1cc(F)ccc1-c1ncnc(Nc2cccc(C[S@](C)(=N)=O)c2)n1 .
Out: 3.4

In: // query inhibition at 10 µM value for entry CCN1CCN(Cc2ccc(Nc3ncc(F)c(-c4cc(F)c5nc(C)n(C(C)C)c5c4)n3)nc2)CC1
Out: 20.2

In: Tell me the measured inhibition at 10 µM of C[C@H]1CC[C@H](n2c3cnccc3c3cnc(Nc4ccc5c(n4)CCN(C(=O)CO)C5)nc32)CC1 , please.
Out: 2.6

In: # input molecule: Cc1ncc(-c2ccnc(Nc3ccc(S(C)(=O)=O)cc3)n2)n1C(C)C ; wanted: its inhibition at 10 µM
Out: 66.2

In: I am curious: what inhibition at 10 µM value has been reported for O=C(NC1CCNCC1)c1[nH]ncc1NC(=O)c1c(Cl)cccc1Cl ?
Out: 76.2

----------
Molecular target: CDK19/Cyclin C (Homo sapiens, UniProt Q9BWU1)
Sequence (Q9BWU1 whole entry): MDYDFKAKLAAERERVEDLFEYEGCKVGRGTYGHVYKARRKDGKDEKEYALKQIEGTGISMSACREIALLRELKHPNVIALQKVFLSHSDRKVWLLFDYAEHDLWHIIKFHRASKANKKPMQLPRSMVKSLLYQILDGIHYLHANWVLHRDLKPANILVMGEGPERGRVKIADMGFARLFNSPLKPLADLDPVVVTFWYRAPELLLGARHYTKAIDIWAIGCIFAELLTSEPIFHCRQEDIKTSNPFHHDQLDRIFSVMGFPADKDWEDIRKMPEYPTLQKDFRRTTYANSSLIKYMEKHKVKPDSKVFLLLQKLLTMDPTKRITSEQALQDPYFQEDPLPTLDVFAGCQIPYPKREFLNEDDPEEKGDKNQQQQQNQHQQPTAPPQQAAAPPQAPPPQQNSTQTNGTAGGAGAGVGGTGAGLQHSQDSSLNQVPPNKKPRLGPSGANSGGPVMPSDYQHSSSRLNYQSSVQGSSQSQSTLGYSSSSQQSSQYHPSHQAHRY
Sequence (P24863 whole entry partner): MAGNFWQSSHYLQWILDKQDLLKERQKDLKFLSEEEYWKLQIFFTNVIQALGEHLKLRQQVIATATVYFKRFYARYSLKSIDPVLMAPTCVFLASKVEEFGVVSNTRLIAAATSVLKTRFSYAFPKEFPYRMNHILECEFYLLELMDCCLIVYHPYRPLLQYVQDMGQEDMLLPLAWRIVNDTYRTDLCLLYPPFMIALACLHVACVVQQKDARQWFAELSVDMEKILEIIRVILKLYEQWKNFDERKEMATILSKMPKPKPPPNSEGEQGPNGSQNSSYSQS
Assay: NanoBRET live-cell target engagement, NanoLuc-CDK19/Cyclin C in HEK-293
Details: CDK19/C; 10µM
recordedEndpoint: Inhibition at 10µM (%) Replicate 1
API: value field is a number in %; no unit string.

{"compound": "CCC(CO)Nc1nc(Nc2cccc(-c3ccccn3)c2)c2ncn(C(C)C)c2n1.Cl.O [(R) - DRF053]", "Inhibition at 10µM (%) Replicate 1": 16.0}

In: Suppose we examine the compound O=C(Nc1c[nH]nc1-c1ccccn1)c1nn(C2CCNCC2)cc1Cl [BDP5290] ; what Inhibition at 10µM (%) Replicate 1 value has been reported?
Out: 12.8

In: Endpoint output: Inhibition at 10µM (%) Replicate 1 of CNC1CCN(C(=O)c2ccc(Nc3ncc(F)c(-c4cnc(C)n4C(C)C)n3)cc2)C1 (stereo not shown) [AZD5597] . Value?
Out: 88.7

In: Report Inhibition at 10µM (%) Replicate 1 for CC(C)c1cnn2c(NCc3ccccc3)cc(N[C@@H](CO)[C@H](O)CO)nc12 [BS-194] please.
Out: 38.0

----------
Biological target: CDK9/Cyclin K (Homo sapiens)
Sequence (P50750 whole entry): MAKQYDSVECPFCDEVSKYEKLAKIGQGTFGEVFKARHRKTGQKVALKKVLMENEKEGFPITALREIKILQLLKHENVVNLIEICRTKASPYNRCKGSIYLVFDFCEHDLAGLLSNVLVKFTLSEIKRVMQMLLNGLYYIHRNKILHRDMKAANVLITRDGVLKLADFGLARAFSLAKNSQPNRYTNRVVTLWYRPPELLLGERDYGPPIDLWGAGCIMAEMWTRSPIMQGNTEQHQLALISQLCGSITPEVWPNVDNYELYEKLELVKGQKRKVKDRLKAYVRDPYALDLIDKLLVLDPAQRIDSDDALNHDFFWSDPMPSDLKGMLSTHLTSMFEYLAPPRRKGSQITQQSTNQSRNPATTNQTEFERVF
Sequence (O75909 whole entry partner): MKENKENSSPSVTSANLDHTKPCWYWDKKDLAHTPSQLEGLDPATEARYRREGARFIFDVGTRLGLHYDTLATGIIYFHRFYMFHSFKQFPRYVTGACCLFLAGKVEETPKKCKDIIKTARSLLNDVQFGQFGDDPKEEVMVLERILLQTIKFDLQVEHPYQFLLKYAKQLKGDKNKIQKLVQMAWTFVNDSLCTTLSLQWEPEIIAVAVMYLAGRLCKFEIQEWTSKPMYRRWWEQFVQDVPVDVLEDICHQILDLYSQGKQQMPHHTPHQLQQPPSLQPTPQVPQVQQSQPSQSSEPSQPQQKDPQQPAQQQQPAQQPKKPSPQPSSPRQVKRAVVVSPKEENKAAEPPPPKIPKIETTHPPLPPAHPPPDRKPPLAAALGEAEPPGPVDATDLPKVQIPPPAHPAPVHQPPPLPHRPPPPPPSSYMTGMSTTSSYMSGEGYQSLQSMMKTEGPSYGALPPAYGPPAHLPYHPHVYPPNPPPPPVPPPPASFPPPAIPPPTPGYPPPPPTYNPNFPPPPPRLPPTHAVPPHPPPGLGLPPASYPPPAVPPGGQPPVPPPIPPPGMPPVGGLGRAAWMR
Assay: NanoBRET live-cell target engagement, NanoLuc-CDK9/Cyclin K in HEK-293
Type: binding
Conditions: 10µM; independent experiment 2; read-out: CDK9/K Inhibition at 10µM (%)
recordedEndpoint: inhibition at 10 µM (%)
The answer is to be given in %; state only the numeric part.

{"smilesStructure": "CC(=O)c1c(C)c2cnc(Nc3ccc(N4CCNCC4)cn3)nc2n(C2CCCC2)c1=O", "units": "%", "inhibition at 10 µM": 61}

In: Look up inhibition at 10 µM: CC(C)CC(=O)Nc1[nH]nc2c1CN(C(=O)C1CCN(C)CC1)C2(C)C
Out: 84.1

----------
Entries and their inhibition at 10 µM
Target: CDK2/Cyclin E1 (Homo sapiens)
Test: NanoBRET live-cell target engagement, CDK2-NanoLuc/Cyclin E1 in HEK-293
Format: binding
Settings: 10µM; independent experiment 2; read-out: CDK2/E1 Inhibition at 10µM (%)
Please give a number only; it is taken to be in %.

Known results for compounds:
{"compound": "CN1C/C=C/CCOc2cccc(c2)-c2ccnc(n2)Nc2cccc(c2)C1 [SB1317]", "measuredTarget": "CDK2/Cyclin E1 (Homo sapiens)", "inhibition at 10 µM, %": 95}
{"compound": "CN(C)C/C=C/C(=O)Nc1ccc(C(=O)N2CCC[C@@H](Nc3ncc(Cl)c(-c4c[nH]c5ccccc45)n3)C2)cc1 [THZ531]", "measuredTarget": "CDK2/Cyclin E1 (Homo sapiens)", "inhibition at 10 µM, %": 59.3}

In: So what inhibition at 10 µM did CN1CCN(c2ccc(Nc3ncc4cc5n(c4n3)C3(CCCCC3)CNC5=O)nc2)CC1 [Trilaciclib] get with CDK2/Cyclin E1 (Homo sapiens)?
Out: -0.535

In: Please state recorded inhibition at 10 µM (tested on CDK2/Cyclin E1 (Homo sapiens)) of COCCN1CCN(Cc2ccc(-c3n[nH]c4c3C(=O)c3c(NC(=O)NN5CCOCC5)cccc3-4)cc2)CC1 [RGB286638]
Out: 85.1

In: Form field: inhibition at 10 µM recorded for CC(C)[C@H](CO)Nc1nc(Nc2ccc(C(=O)O)c(Cl)c2)c2ncn(C(C)C)c2n1 [Purvalanol B] with CDK2/Cyclin E1 (Homo sapiens) (enter value)
Out: 54

In: Which measured inhibition at 10 µM belongs to CC(C)CC(=O)Nc1[nH]nc2c1CN(C(=O)C1CCN(C)CC1)C2(C)C [PHA-793887] , tested on CDK2/Cyclin E1 (Homo sapiens)?
Out: 96.3

In: Please provide the recorded inhibition at 10 µM for CC(=O)c1c(C)c2cnc(Nc3ccc(N4CCNCC4)cn3)nc2n(C2CCCC2)c1=O [Palbociclib] , tested on CDK2/Cyclin E1 (Homo sapiens).
Out: 95.5

----------
Biological target: CDK15/Cyclin Y (Homo sapiens, UniProt Q96Q40)
Sequence (Q96Q40 whole entry): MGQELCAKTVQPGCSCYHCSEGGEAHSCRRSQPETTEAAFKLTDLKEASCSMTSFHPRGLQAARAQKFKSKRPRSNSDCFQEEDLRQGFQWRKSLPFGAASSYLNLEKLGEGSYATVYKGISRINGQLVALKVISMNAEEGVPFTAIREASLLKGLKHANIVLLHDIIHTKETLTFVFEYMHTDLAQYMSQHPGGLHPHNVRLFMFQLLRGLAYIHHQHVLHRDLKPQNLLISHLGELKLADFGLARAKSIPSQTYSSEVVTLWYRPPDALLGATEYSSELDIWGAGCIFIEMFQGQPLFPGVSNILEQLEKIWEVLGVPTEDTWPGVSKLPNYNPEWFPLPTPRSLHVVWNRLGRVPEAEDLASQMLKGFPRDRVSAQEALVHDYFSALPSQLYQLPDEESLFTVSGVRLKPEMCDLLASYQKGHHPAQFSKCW
Sequence (Q8ND76 whole entry partner): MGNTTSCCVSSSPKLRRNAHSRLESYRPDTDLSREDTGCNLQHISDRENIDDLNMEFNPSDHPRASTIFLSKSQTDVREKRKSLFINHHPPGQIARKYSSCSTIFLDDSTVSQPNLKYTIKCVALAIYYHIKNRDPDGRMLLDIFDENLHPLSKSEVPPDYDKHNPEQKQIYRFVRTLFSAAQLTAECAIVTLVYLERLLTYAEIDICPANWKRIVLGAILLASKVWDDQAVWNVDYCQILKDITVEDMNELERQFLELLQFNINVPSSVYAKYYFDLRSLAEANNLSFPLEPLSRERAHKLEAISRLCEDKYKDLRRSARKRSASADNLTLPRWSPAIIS
Experiment: NanoBRET live-cell target engagement, NanoLuc-CDK15/Cyclin Y in HEK-293
Assay type: binding
Conditions: 10µM; independent experiment 2; read-out: CDK15/Y Inhibition at 10µM (%)
recordedEndpoint: inhibition at 10 µM (%)
A number alone suffices; assume %.

These recorded examples may help you get a feel for the data.
{"compound": "CN1C/C=C/CCOc2cccc(c2)-c2ccnc(n2)Nc2cccc(c2)C1 [SB1317]", "units": "%", "inhibition at 10 µM": 98.7}
{"compound": "CC(=O)c1c(C)c2cnc(Nc3ccc(N4CCNCC4)cn3)nc2n(C2CCCC2)c1=O [Palbociclib]", "units": "%", "inhibition at 10 µM": 35.4}
{"compound": "CN(C)C/C=C/C(=O)Nc1ccc(C(=O)N2CCC[C@@H](Nc3ncc(Cl)c(-c4c[nH]c5ccccc45)n3)C2)cc1 [THZ531]", "units": "%", "inhibition at 10 µM": 85.5}
{"compound": "CC(C)CC(=O)Nc1[nH]nc2c1CN(C(=O)C1CCN(C)CC1)C2(C)C [PHA-793887]", "units": "%", "inhibition at 10 µM": 72.5}
{"compound": "CN1CCN(c2ccc(Nc3ncc4cc5n(c4n3)C3(CCCCC3)CNC5=O)nc2)CC1 [Trilaciclib]", "units": "%", "inhibition at 10 µM": 13.1}

Okay, now this compound:
In: Look at this compound and give its reported inhibition at 10 µM. CC(C)[C@H](CO)Nc1nc(Nc2ccc(C(=O)O)c(Cl)c2)c2ncn(C(C)C)c2n1 [Purvalanol B]
Out: -4.9

----------
Each record here notes measured CDK8/C Inhibition at 10µM (%).
Target: CDK8/Cyclin C (Homo sapiens, UniProt P49336)
Sequence (P49336 whole entry): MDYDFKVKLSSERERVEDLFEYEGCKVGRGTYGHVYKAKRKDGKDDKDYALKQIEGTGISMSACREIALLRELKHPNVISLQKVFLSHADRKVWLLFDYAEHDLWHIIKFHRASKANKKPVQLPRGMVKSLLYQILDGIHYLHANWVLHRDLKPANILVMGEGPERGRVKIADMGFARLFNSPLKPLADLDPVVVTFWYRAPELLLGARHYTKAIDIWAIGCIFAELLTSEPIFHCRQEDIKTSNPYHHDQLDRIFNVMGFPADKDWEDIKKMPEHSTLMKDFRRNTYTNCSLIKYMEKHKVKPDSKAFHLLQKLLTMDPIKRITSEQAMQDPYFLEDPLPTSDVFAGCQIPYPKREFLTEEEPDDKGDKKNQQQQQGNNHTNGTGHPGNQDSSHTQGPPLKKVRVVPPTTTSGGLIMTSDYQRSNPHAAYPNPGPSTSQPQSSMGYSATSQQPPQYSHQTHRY
Sequence (P24863 whole entry partner): as the sequence (P24863 whole entry partner) above
Experiment: NanoBRET live-cell target engagement, NanoLuc-CDK8/Cyclin C in HEK-293
Assay type: binding
Settings: 10µM; independent experiment 1
Write the number in % without appending the unit.

Worked examples follow.
{"molecule": "Cc1c(Br)c(Br)c2c3c1nc(N1CCNCC1)n3CCC2.Cl [SEL 120-34A]", "measuredTarget": "CDK8/Cyclin C (Homo sapiens, UniProt P49336)", "assayResult": 96.1}
{"molecule": "O=C1NCCc2[nH]c(-c3ccncc3)cc21", "measuredTarget": "CDK8/Cyclin C (Homo sapiens, UniProt P49336)", "assayResult": 98.5}
{"molecule": "CN(C)C/C=C/C(=O)Nc1ccc(C(=O)Nc2cccc(Nc3ncc(Cl)c(-c4c[nH]c5ccccc45)n3)c2)cc1", "measuredTarget": "CDK8/Cyclin C (Homo sapiens, UniProt P49336)", "assayResult": 34.6}

Next:
In: Any idea what CDK8/C Inhibition at 10µM (%) was measured for O=C1NC(=NCc2cccs2)S/C1=C\c1ccc2ncccc2c1 ?
Out: 15.7
